Entry source: patent US20070167408A1

Reported values of MIC, fungus E for individual entries
- Tested on: Candida albicans ATCC 90028
- assay details: Anti-fungal broth microdilution (MIC), fungus E
- Type: cell-based
- particulars: yeast protocol, more than 80% inhibition, 48 h

// solved cases for MIC, fungus E follow
compound	target entity	MIC, fungus E
CCCCCCCCCCCCCCCCOP(=O)([O-])OC1CC[N+](C)(Cc2ccccc2)CC1 (centres unmarked) [Compound 1]	Candida albicans ATCC 90028	1 µg/mL
CCCCCCCCCCCCCCCCCCOP(=O)([O-])OCC[As+](C)(C)C [Compound 22]	Candida albicans ATCC 90028	1 µg/mL
CCCCCCCCCCCCCCCCOP(=O)([O-])OCC[N+]1(C)CCCCC1 [Compound 2]	Candida albicans ATCC 90028	1 µg/mL

Recorded MIC, fungus E for CCCCCCCCCCCCCCCCOP(=O)([O-])OCC[N+]12CCC(CC1)CC2 [Compound 3] with Candida albicans ATCC 90028, please?
1 µg/mL

Record lookup: for Candida albicans ATCC 90028, what MIC, fungus E belongs to CCCCCCCC/C=C\CCCCCCCCCCCCOP(=O)([O-])OCC[N+](C)(C)C [ErPC, (13Z)-docosenylphosphocholine, reference compound] ?
>64 µg/mL
